Source: ChEMBL document CHEMBL3352655

experiment: Partition coefficient, log P of the compound
Type: physicochemical
particulars: octanol/water
Would you please tag the item 1.0 when its logP is 0.6 or above, and 0.0 when it is below?

Examples with answers:
>>> print(df.to_string())
                                   compound  category
0  O=C1[C@@H]2[C@H](C(=O)N1c1ccc(S(=O)(=O)NC3CCCC3)cc1)[C@@H]1CC[C@H]2O1       1.0
1  CCOC(=O)Cc1csc(NC(=O)C2C(C(=O)O)[C@H]3CC[C@@H]2O3)n1 (some centres not stated)       1.0
2  O=C1[C@@H]2[C@H](C(=O)N1c1ccc(S(=O)(=O)N3CCOCC3)cc1)[C@@H]1CC[C@H]2O1       1.0
3  CCN1CCN(S(=O)(=O)c2ccc(NC(=O)C3C(C(=O)O)[C@H]4CC[C@@H]3O4)cc2)CC1 (some centres not stated)       0.0
4  O=C(Nc1ccc(S(=O)(=O)NC2CC2)cc1)C1C(C(=O)O)[C@H]2CC[C@@H]1O2 (some centres not stated)       0.0

Now look at this entry.
Reported logP at or above 0.6? `O=C1[C@@H]2[C@H](C(=O)N1c1ccc(S(=O)(=O)N3CCN(c4ccc(F)cc4)CC3)cc1)[C@@H]1CC[C@H]2O1` 1.0

====

experiment: Cytotoxicity against human HCT8 cells after 48 hrs by MTT assay
Format: functional, cell-based
particulars: HCT-8, 48 h
pIC50 listing for selected compounds.
For clarity, pIC50 is expressed as the negative log10 of concentration in mol/L.

>>> df
                                   compound  recorded_metric  observed_result
0  O=C(Nc1ccc(S(=O)(=O)N2CCN(c3ccc(F)cc3)CC2)cc1)C1C(C(=O)O)[C@H]2CC[C@@H]1O2 (single isomer, unassigned)            pIC50             4.78
1  O=C(Nc1ccc(S(=O)(=O)NC2CCCC2)cc1)C1C(C(=O)O)[C@H]2CC[C@@H]1O2 (stereo partly specified)            pIC50             4.52
2  O=C1[C@@H]2[C@H](C(=O)N1c1ccc(S(=O)(=O)NC3CCCC3)cc1)[C@@H]1CC[C@H]2O1            pIC50             4.48
3  O=C(Nc1ccc(S(=O)(=O)NC2CCCCC2)cc1)C1C(C(=O)O)[C@H]2CC[C@@H]1O2 (stereo partly specified)            pIC50             4.51
4  O=C1[C@@H]2[C@H](C(=O)N1c1ccc(S(=O)(=O)N3CCOCC3)cc1)[C@@H]1CC[C@H]2O1            pIC50             4.36
5  CCN1CCN(S(=O)(=O)c2ccc(NC(=O)C3C(C(=O)O)[C@H]4CC[C@@H]3O4)cc2)CC1 (stereo partly specified)            pIC50             4.56
6  O=C(Nc1ccc(S(=O)(=O)N2CCOCC2)cc1)C1C(C(=O)O)[C@H]2CC[C@@H]1O2 (stereo partly specified)            pIC50             4.50
7  O=C1OC(=O)C2C3CCC(O3)C12 (stereo unspecified)            pIC50             4.55
8  O=C(Nc1ccc(S(=O)(=O)NC2CC2)cc1)C1C(C(=O)O)[C@H]2CC[C@@H]1O2 (stereo partly specified)            pIC50             4.55

# context switch: different compound, same pIC50
Data point: `O=C1[C@@H]2[C@H](C(=O)N1c1ccc(S(=O)(=O)N3CCN(c4ccc(F)cc4)CC3)cc1)[C@@H]1CC[C@H]2O1` ; pIC50 = 4.49
